Entries and their % INHIBITION of Jurkat human leukemia T cell proliferation values follow.
test system: Jurkat human leukemia T cells; assay: Inhibition of Jurkat human leukemia T cell proliferation (MTT reduction); type: cell-based; conditions: 100 μg/ml sequence, 48 h, 2.5×10^5 cells/ml
REPORTED METRIC: % INHIBITION of Jurkat human leukemia T cell proliferation (%)

• TTTGTT [SEQ ID NO:23 phosphorothioate] (phosphorothioate backbone) = 4
• TGTGTGTGTGTGTG (chemistry not given here) [SEQ ID NO:15] = 47
• GGGTGG [SEQ ID NO:25 phosphorothioate] = 0
• GGTTTTGTTTG (unmodified DNA) [SEQ ID NO:82] = 20
• GGGTGGGGGTGGGGGTGG [SEQ ID NO:69] = 5

###

tested on: D-17 canine osteosarcoma cells; test: Inhibition of D-17 cell proliferation (MTT); type: cell-based; details: 100 μg/ml, 48 h, 5×10^5 cells/ml
REPORTED METRIC: % INHIBITION of D-17 canine osteosarcoma cell proliferation

- AACCACAAGCCCAAC (DNA, backbone not given here) [SEQ ID NO:67]: 20%
- GGGTGG [SEQ ID NO:25]: 18%
- GTGTGTTTGGTGGTTTTGTTTGTTGTTTTTTTG (DNA, backbone not given here) [SEQ ID NO:66]: 23%
- GTGTGTGTGTGTGTGTGTGTGTGTGTG [SEQ ID NO:1] (chemistry not given here): 23%
- TGTGTGTGTGTGTGTGTG (unmodified DNA) [SEQ ID NO:17]: 8%
- GTGTGT [SEQ ID NO:10]: 15%

###

system: human peripheral blood mononuclear cells; assay: Cytokine production by human PBMC (ELISA); format: cell-based; conditions: PBMC of 7 healthy humans, 100 μg/ml, 48 h
Entries and their IL-10 fold increase: mean +/− SD values follow.
REPORTED METRIC: IL-10 fold increase: mean +/− SD

* TGTGTG [SEQ ID NO:9] | 1.0 +/− 0.1 fold increase
* TCGTTC [SEQ ID NO:37] | 1.0 +/− 0.1 fold increase
* GGCCGG [SEQ ID NO:43] | 1.2 +/− 0.3 fold increase
* GTGTGTGTGTGT [SEQ ID NO:14] | 1.0 +/− 0.1 fold increase
* GGTTGG [SEQ ID NO:41] | 1.0 +/− 0.1 fold increase
* TTGTTT [SEQ ID NO:26] | 1.0 +/− 0.1 fold increase
* GGGCGG (unmodified DNA) [SEQ ID NO:46] | 1.0 +/− 0.1 fold increase
* GGGGGG [SEQ ID NO:44] | 1.7 +/− 1.6 fold increase
* GTGTGT [SEQ ID NO:10] | 1.0 +/− 0.1 fold increase
* CCGTCC [SEQ ID NO:28] | 1.0 +/− 0.1 fold increase
* TGGTTG [SEQ ID NO:29] | 1.0 +/− 0.1 fold increase
* ATGTAT (unmodified DNA) [SEQ ID NO:30] | 1.0 +/− 0.1 fold increase
* TTTGTT [SEQ ID NO:23] | 1.0 +/− 0.1 fold increase
* GGGAGG (unmodified DNA) [SEQ ID NO:45] | 6.0 +/− 5.5 fold increase
* GGAAGG (unmodified DNA) [SEQ ID NO:42] | 1.1 +/− 0.2 fold increase
* GGTGGG [SEQ ID NO:24] | 2.4 +/− 2.9 fold increase
* CTGTCT [SEQ ID NO:36] | 1.0 +/− 0.1 fold increase
* AAGTAA [SEQ ID NO:27] | 1.0 +/− 0.1 fold increase
* TGTGTGTGTGTG [SEQ ID NO:13] | 1.2 +/− 0.4 fold increase
* GGGTGG [SEQ ID NO:25] | 11.6 +/− 1.2 fold increase

###

test system: human peripheral blood mononuclear cells; test: Cytokine production by human PBMC (ELISA); format: cell-based; settings: PBMC of 7 healthy humans, 100 μg/ml, 48 h
REPORTED METRIC: IL-6 fold increase: mean +/− SD

- GGTGGG [SEQ ID NO:24]: 15.9 +/− 14.9 fold increase
- CTGTCT [SEQ ID NO:36]: 5.3 +/− 3.6 fold increase
- ATGTAT (unmodified DNA) [SEQ ID NO:30]: 4.6 +/− 4.4 fold increase
- GGGAGG (unmodified DNA) [SEQ ID NO:45]: 24.7 +/− 16.5 fold increase
- GGGGGG [SEQ ID NO:44]: 21.0 +/− 14.7 fold increase

###

Entries and their % of cells in phase: SM values follow.
tested on: Jurkat human leukemia T cells; test: Cell cycle stage in Jurkat cells (propidium iodide flow cytometry); assay type: cell-based; conditions: Jurkat, 24 h, 100 μg/ml
REPORTED METRIC: % of cells in phase: SM (%)

• GGGGGTGGGGGTGGGGGTGGGGGTGGG (unmodified DNA) [SEQ ID NO:3] = 12.9
• AACCACAAGCCCAAC (DNA, backbone not given here) [SEQ ID NO:67] = 12.8
• GGAAGG (unmodified DNA) [SEQ ID NO:42] = 8.5
• TTAGGG (phosphodiester backbone) [SEQ ID NO:49, reference compound] = 19.5
• AAAGAGGGGCATGACCCGGTGCGGGGGTTCTTGCACTCGGCATAG (unmodified DNA) [BCG A-1, reference compound] = 22.5
• GTGTGTGTGTGTGTGTGT (unmodified DNA) [SEQ ID NO:18] = 24.0
• GTGTGTGTGTGTGTGTGTGTGTGTGTG (DNA, backbone not given here; further chemistry not fully specified) [SEQ ID NO:1 phosphorothioate] = 13.2
• AGGTGA [SEQ ID NO:31] = 10.4
• TCCATCGCCAAGGAGATCGAGCTGGAGGATCCGTACGAGAAGATC (unmodified DNA) [BCG A-3, reference compound] = 14.1
• GTGTGT [SEQ ID NO:10] = 16.8
• GGGGGGGTGGGGGGGTGGGGGGGTGGG (unmodified DNA) [SEQ ID NO:4] = 13.8
• GGGTGGGTGGGTGGGTGGGTGGGTGGG [SEQ ID NO:2] = 13.6
• GGCCGG [SEQ ID NO:43] = 22.8
• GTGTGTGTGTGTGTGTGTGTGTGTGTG [SEQ ID NO:1] (chemistry not given here) = 14.2
• GGGTGG [SEQ ID NO:25 phosphorothioate] = 15.0
• TTGTTT [SEQ ID NO:26] = 12.8
• GGGTGG [SEQ ID NO:25] = 14.6

###

tested on: EL-4 murine T lymphoma cells; assay: Inhibition of EL-4 cell proliferation (MTT); type: cell-based; conditions: 100 μg/ml, 48 h
Entries and their % INHIBITION of EL-4 murine T lymphoma cell proliferation values follow.
REPORTED METRIC: % INHIBITION of EL-4 murine T lymphoma cell proliferation (%)

• AACCACAAGCCCAAC (DNA, backbone not given here) [SEQ ID NO:67] = −6
• GTGTGTTTGGTGGTTTTGTTTGTTGTTTTTTTG (DNA, backbone not given here) [SEQ ID NO:66] = −1
• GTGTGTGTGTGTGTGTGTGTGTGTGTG [SEQ ID NO:1] (chemistry not given here) = 1
• GTGTGTGTGTGTGTGTGT (unmodified DNA) [SEQ ID NO:18] = −2
• GTGTGT [SEQ ID NO:10] = −2
• GGGTGG [SEQ ID NO:25 phosphorothioate] = −8

###

system: chimpanzee PBMCs; experiment: Cytokine production by chimpanzee PBMC (ELISA); format: cell-based; details: PBMC of 4 healthy chimpanzees, 100 μg/ml, 48 h
Entries and their IL-10 fold increase: mean +/− SD values follow.
REPORTED METRIC: IL-10 fold increase: mean +/− SD

* TTGTTT [SEQ ID NO:26] | 1.4 +/− 0.9 fold increase
* TCGTTC [SEQ ID NO:37] | 3.4 +/− 2.6 fold increase
* ATGTAT (unmodified DNA) [SEQ ID NO:30] | 1.4 +/− 0.4 fold increase
* GGGTGG [SEQ ID NO:25] | 2.5 +/− 1.5 fold increase
* AAGTAA [SEQ ID NO:27] | 2.1 +/− 1.1 fold increase
* GGGCGG (unmodified DNA) [SEQ ID NO:46] | 4.7 +/− 3.4 fold increase
* GGGAGG (unmodified DNA) [SEQ ID NO:45] | 9.9 +/− 9.2 fold increase
* CTGTCT [SEQ ID NO:36] | 3.0 +/− 2.1 fold increase
* GGGGGG [SEQ ID NO:44] | 11.2 +/− 9.1 fold increase
* CCGTCC [SEQ ID NO:28] | 3.8 +/− 2.8 fold increase
* TGTGTG [SEQ ID NO:9] | 2.3 +/− 1.3 fold increase
* TTTGTT [SEQ ID NO:23] | 1.5 +/− 0.6 fold increase
* GTGTGT [SEQ ID NO:10] | 4.0 +/− 2.1 fold increase
* GGTTGG [SEQ ID NO:41] | 9.1 +/− 7.7 fold increase
* GGAAGG (unmodified DNA) [SEQ ID NO:42] | 9.9 +/− 8.9 fold increase
* TGGTTG [SEQ ID NO:29] | 3.1 +/− 2.0 fold increase
* GGTGGG [SEQ ID NO:24] | 2.9 +/− 1.5 fold increase
* GGCCGG [SEQ ID NO:43] | 13.6 +/− 9.0 fold increase
